Test: BSK_3C_Vis: BioMAP Diversity Plus: 3C Assay for Morphology Visualization (AID 2283025);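 further: fitted both ways so gain or loss versus DMSO counts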
Details: primary human endothelial cells (HUVEC)
Active and inactive are the calls of the source. How the source made its calls: active means hit-call score of the fitted dose curve at least 0.9, where 1 is the maximum; inactive means score below 0.9.
Lab note: assign the record to one of yes (1) = active, no (0) = inactive

Cc1cccc(C)c1N; no (0)
CCOP(=S)(OCC)SCSC(C)(C)C; no (0)
ClC(Cl)=C(c1ccc(Cl)cc1)c1ccc(Cl)cc1; yes (1)

Challenge: What was the test verdict on c1ccc(-c2ccccc2)cc1 ?
Response given: no (0)

Challenge: I'd appreciate the recorded outcome for Nc1ccc(-c2ccc(N)cc2)cc1 from this test.
Response given: no (0)

Challenge: Recorded call for Clc1ccc(Cl)cc1 ?
Response given: no (0)

Challenge: Please state the recorded outcome for this compound: CCC(C)c1cc([N+](=O)[O-])cc([N+](=O)[O-])c1O (configuration not stated)
Response given: yes (1)
